# target-or-test-system: human SCD1 (Homo sapiens, UniProt O00767)
# Construct: made in house; host or cells: High Five insect cells (baculovirus, pFastBac1/hSCD1); membrane fraction
# Sequence (O00767 1-359): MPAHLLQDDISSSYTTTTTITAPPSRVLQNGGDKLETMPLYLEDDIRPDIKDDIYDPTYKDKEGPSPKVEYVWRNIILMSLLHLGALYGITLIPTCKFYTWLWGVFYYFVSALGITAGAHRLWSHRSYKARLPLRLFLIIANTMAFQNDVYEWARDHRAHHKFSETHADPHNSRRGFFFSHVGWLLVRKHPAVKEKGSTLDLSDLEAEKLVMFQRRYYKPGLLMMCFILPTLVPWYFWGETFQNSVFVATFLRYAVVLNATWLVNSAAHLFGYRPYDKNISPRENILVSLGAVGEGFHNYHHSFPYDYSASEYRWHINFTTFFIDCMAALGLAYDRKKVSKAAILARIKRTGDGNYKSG
# assay-remarks: Measurement of human SCD1 binding activity (inhibition of binding of radiolabeled compound Z)
# condition-summary: 1 μM compound; human SCD1-expressing membrane fraction; compound Z radioligand; read-out: Rate of inhibition of SCD1 binding (%) at compound concentration of 1 μM
For each of the compounds below, state its inhibition at 1 µM.
Answers are plain numbers, in %.

Examples from the recorded data:
{"chemical-smiles": "N#CC1(c2ccc(C(F)(F)F)cc2)CCN(c2ccc(-c3nc(CO)no3)nn2)CC1", "inhibition at 1 µM / %": 95}
{"chemical-smiles": "N#CC1(c2ccc(S(F)(F)(F)(F)F)cc2)CCN(c2ccc(-c3nc(CO)ns3)nn2)CC1", "inhibition at 1 µM / %": 99}

// each listed compound needs a value for inhibition at 1 µM
1. OCc1nnc(-c2ccc(N3CCC(c4ccc(C(F)(F)F)cc4)(C(F)(F)F)CC3)nn2)o1
2. N#CC1(c2ccc(S(F)(F)(F)(F)F)cc2)CCN(c2ccc(-c3nnc(CO)s3)nn2)CC1
3. OCc1nsc(-c2ccc(N3CCC(c4ccc(C(F)(F)F)cc4)(C(F)(F)F)CC3)nn2)n1
4. OCc1noc(-c2ccc(N3CCC(c4ccc(C(F)(F)F)cc4)(C(F)(F)F)CC3)nn2)n1

99
87
99
99

// each listed compound needs a value for inhibition at 1 µM
1. COC1(c2ccc(S(F)(F)(F)(F)F)cc2)CCN(c2ccc(-c3nc(CO)ns3)nn2)CC1
2. COC1(c2ccc(S(F)(F)(F)(F)F)cc2)CCN(c2ccc(-c3nnc(CO)o3)nn2)CC1
3. N#CC1(c2ccc(S(F)(F)(F)(F)F)cc2)CCN(c2ccc(-c3nnc(CO)o3)nn2)CC1
4. OCc1nnc(-c2ccc(N3CCC(c4ccc(C(F)(F)F)cc4)(C(F)(F)F)CC3)nn2)s1

[100, 98, 89, 100]

====

# target-or-test-system: SCD (Homo sapiens, UniProt O00767)
# Construct: HCT116 (ATCC (American Type Culture Collection)) was inoculated at 1×10^5 cells/well to a 96-well plate; host or cells: HCT116
# assay-remarks: Measurement of SCD inhibitory activity using human large intestine cancer cell line (HCT116 cell)
# Assay type: cell-based
# condition-summary: HCT-116; 1 μM compound; HCT116 cells; [14C]stearic acid, 3 hours; read-out: Rate of inhibition of SCD activity at compound concentration of 1 μM
measured-endpoint: inhibition at 1 µM
Include the unit after the number when you answer.

# example entries with known answers
{"chemical-smiles": "N#CC1(c2ccc(S(F)(F)(F)(F)F)cc2)CCN(c2ccc(-c3nnc(CO)s3)nn2)CC1", "endpoint-value": "96%"}
{"chemical-smiles": "OCc1noc(-c2ccc(N3CCC(c4ccc(C(F)(F)F)cc4)(C(F)(F)F)CC3)nn2)n1", "endpoint-value": "99%"}
{"chemical-smiles": "N#CC1(c2ccc(S(F)(F)(F)(F)F)cc2)CCN(c2ccc(-c3nnc(CO)o3)nn2)CC1", "endpoint-value": "97%"}

For each entry beneath this line, provide reported inhibition at 1 µM.
1. OCc1nnc(-c2ccc(N3CCC(c4ccc(C(F)(F)F)cc4)(C(F)(F)F)CC3)nn2)o1
2. COC1(c2ccc(S(F)(F)(F)(F)F)cc2)CCN(c2ccc(-c3nnc(CO)s3)nn2)CC1
3. OCc1nnc(-c2ccc(N3CCC(c4ccc(C(F)(F)F)cc4)(C(F)(F)F)CC3)nn2)s1
4. COC1(c2ccc(S(F)(F)(F)(F)F)cc2)CCN(c2ccc(-c3nc(CO)ns3)nn2)CC1
5. COC1(c2ccc(S(F)(F)(F)(F)F)cc2)CCN(c2ccc(-c3nnc(CO)o3)nn2)CC1
6. OCc1nsc(-c2ccc(N3CCC(c4ccc(C(F)(F)F)cc4)(C(F)(F)F)CC3)nn2)n1

1: 99%; 2: 101%; 3: 99%; 4: 98%; 5: 99%; 6: 97%

Recorded inhibition at 1 µM of `N#CC1(c2ccc(S(F)(F)(F)(F)F)cc2)CCN(c2ccc(-c3nc(CO)ns3)nn2)CC1` , please.
100%

====

Would you kindly list inhibition at 1 µM for each of these molecules?
# target-or-test-system: SCD (Rattus norvegicus, UniProt P07308)
# Construct: the obtained precipitate other than the glycogen layer was used as the microsome fraction; from tissue; host or cells: rat liver microsome fraction
# Sequence (P07308 whole entry): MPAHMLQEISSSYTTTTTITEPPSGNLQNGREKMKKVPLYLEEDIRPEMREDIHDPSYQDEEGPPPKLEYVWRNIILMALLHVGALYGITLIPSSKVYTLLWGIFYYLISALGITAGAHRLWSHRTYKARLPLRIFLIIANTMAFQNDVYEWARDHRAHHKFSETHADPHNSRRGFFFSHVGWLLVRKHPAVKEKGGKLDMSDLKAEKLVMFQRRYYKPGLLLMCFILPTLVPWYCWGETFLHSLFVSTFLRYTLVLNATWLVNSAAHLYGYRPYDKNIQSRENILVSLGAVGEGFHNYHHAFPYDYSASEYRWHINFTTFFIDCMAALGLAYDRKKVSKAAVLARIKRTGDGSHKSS
# assay-remarks: Measurement of SCD inhibitory activity using microsome (TLC detection system)
# Type: biochemical
# condition-summary: 1 μM compound; rat liver microsome fraction; [14C]stearoyl-CoA; read-out: Rate of inhibition of SCD activity at compound concentration of 1 μM
Give bare numbers, in %.

// solved cases for inhibition at 1 µM follow
{"chemical-smiles": "OCc1nnc(-c2ccc(N3CCC(c4ccc(C(F)(F)F)cc4)(C(F)(F)F)CC3)nn2)s1", "target-or-test-system": "SCD (Rattus norvegicus, UniProt P07308)", "inhibition at 1 µM / %": 95}
{"chemical-smiles": "OCc1nnc(-c2ccc(N3CCC(c4ccc(C(F)(F)F)cc4)(C(F)(F)F)CC3)nn2)o1", "target-or-test-system": "SCD (Rattus norvegicus, UniProt P07308)", "inhibition at 1 µM / %": 93}
{"chemical-smiles": "N#CC1(c2ccc(S(F)(F)(F)(F)F)cc2)CCN(c2ccc(-c3nc(CO)ns3)nn2)CC1", "target-or-test-system": "SCD (Rattus norvegicus, UniProt P07308)", "inhibition at 1 µM / %": 95}
{"chemical-smiles": "OCc1noc(-c2ccc(N3CCC(c4ccc(C(F)(F)F)cc4)(C(F)(F)F)CC3)nn2)n1", "target-or-test-system": "SCD (Rattus norvegicus, UniProt P07308)", "inhibition at 1 µM / %": 95}
{"chemical-smiles": "COC1(c2ccc(S(F)(F)(F)(F)F)cc2)CCN(c2ccc(-c3nc(CO)ns3)nn2)CC1", "target-or-test-system": "SCD (Rattus norvegicus, UniProt P07308)", "inhibition at 1 µM / %": 94}
{"chemical-smiles": "OCc1nsc(-c2ccc(N3CCC(c4ccc(C(F)(F)F)cc4)(C(F)(F)F)CC3)nn2)n1", "target-or-test-system": "SCD (Rattus norvegicus, UniProt P07308)", "inhibition at 1 µM / %": 96}

// inhibition at 1 µM lookup, key: `COC1(c2ccc(S(F)(F)(F)(F)F)cc2)CCN(c2ccc(-c3nnc(CO)o3)nn2)CC1`
94
